- test_target: GPR3 (Homo sapiens)
- Construct: host or cells: HEK293A, transient
- test_details: Gs heterotrimer dissociation biosensor (Gs-CASE) in HEK293A cells cotransfected with GPR3
- Format: cell-based
- conditions_used: HEK293A transiently transfected with Gs-CASE and GPR3; read-out: EC50 of GPR3-dependent BRET increase, Gs dissociation biosensor
- Procedure: To further delineate the pharmacological properties of 33, we evaluated its activity in signaling assays downstream of GPR3. […] Cells expressing the conformational GPCR biosensors were grown for 24 h (stable cells) or 48 h (transiently transfected cells) in white 96-well plates and washed with 100 µl of HBSS. […] Three baseline BRET reads were recorded and averaged prior to the addition of serial dilutions of ligands or veh icle control and subsequent BRET reads. […]
property_label: EC50 (nM)

>>> print(df.to_string())
                                   compound  property_label  scale_unit  meas_value
0  N=c1n(Cc2ccccc2)c2ccccc2n1CC1CC1 [compound 33]            EC50          nM         249

###

- test_target: GPR3 (Homo sapiens, UniProt P46089, INS231ASEIGTGFPFDPHYVEVLGERMHYVDVGPRDGTPVLFLHGNPTSSYVWRNIIPHVAPTHRCIAPDLIGMGKSDKPDLGYFFDDHVRFMDAFIEALGLEEVVLVIHDWGSALGFHWAKRNPERVKGIAFMEFIRPIPTWDEWPEFARETFQAFRTTDVGRKLIIDQNVFIEGTLPMGVVRPLTEVEMDHYREPFLNPVDREPLWRFPNELPIAGEPANIVALVEEYMDWLHQSPVPKLLFWGTPGVLIPPAEAARLAKSLPNCKAVDIGPGLNLLQEDNPDLIGSEIARWLSTLEISGGS)
- Construct: ligated to the full-length C-terminus; expressed in transfected cells; some experiments transient
- Sequence (P46089 with tags, fused parts or gaps with the stated changes): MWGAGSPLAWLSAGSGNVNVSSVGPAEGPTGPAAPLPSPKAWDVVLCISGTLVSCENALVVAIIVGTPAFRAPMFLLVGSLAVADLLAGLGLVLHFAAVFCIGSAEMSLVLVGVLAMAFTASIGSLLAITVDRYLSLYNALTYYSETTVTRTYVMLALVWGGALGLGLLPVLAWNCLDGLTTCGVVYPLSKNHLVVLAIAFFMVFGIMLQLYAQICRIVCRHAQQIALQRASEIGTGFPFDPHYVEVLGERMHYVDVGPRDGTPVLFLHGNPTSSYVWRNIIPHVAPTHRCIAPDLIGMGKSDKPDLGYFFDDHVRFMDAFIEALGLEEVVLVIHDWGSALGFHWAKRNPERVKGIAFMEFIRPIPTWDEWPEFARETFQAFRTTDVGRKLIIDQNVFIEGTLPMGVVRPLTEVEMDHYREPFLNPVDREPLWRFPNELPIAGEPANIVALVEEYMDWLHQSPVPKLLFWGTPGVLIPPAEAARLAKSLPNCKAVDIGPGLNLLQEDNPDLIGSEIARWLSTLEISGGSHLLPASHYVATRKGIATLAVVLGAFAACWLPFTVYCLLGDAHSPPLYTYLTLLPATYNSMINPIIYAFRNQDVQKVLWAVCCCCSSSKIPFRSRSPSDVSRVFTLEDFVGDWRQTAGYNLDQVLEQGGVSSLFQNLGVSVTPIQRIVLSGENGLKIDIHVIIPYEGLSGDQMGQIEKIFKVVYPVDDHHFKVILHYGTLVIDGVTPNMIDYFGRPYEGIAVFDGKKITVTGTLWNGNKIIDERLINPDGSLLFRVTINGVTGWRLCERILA
- test_details: BRET-based conformational GPR3 biosensor (GPR3-HaloTag/Nluc) in HEK293A cells
- Assay type: cell-based
- conditions_used: transiently expressing HEK293A cells; read-out: EC50 of BRET increase at conformational GPR3 biosensor
property_label: EC50

>>> df
                                   compound  meas_value
0  CC(C)Oc1cc(Cl)ccc1CNc1cc(-c2ccccc2)nc2ncnn12 [AF64394, reference compound]    0.161 µM

###

- test_target: GPR3 (Homo sapiens)
- Construct: host or cells: HEK293A, transient
- test_details: cAMP GloSensor 22F, GPR3-transfected HEK293A cells
- Format: cell-based
- conditions_used: read-out: EC50 of cAMP decrease in GPR3-expressing cells
property_label: EC50 (nM)

                                   compound  property_label  scale_unit  meas_value
0  N=c1n(Cc2ccccc2)c2ccccc2n1CC1CC1 [compound 33]            EC50          nM        2000
